Listing of Ki toward Carbonic anhydrase 9 (Homo sapiens, UniProt Q16790), each taken from a published source.
Quick rule for you: Ki under 0.1 µM gets yes (1), anything else gets no (0).

{"Compound": "CCOC(=O)[C@@H]1C[C@@H]1Cc1cc(OC)c(OC)c(Br)c1Br", "Group": "no (0)"}
{"Compound": "O=C1c2ccccc2S(=O)(=O)N1Cc1ccccc1Br", "Group": "no (0)"}
{"Compound": "O=S1(=O)C=Cc2ccc(S(=O)(=O)NCC3CC3)cc21", "Group": "yes (1)"}
{"Compound": "Cc1cc(S(N)(=O)=O)c(S(=O)(=O)C(C)C(=O)NN)cc1Cl (configuration not stated)", "Group": "no (0)"}
{"Compound": "CC(=O)c1cc2ccc(Cl)cc2oc1=O", "Group": "no (0)"}
{"Compound": "Cc1c(C(=O)/C=C/NNc2ccc(S(N)(=O)=O)cc2)sc2nc3ccccc3n12", "Group": "yes (1)"}
{"Compound": "Cc1cc(S(N)(=O)=O)c(S/C(=N\\Nc2ccc([N+](=O)[O-])cc2)c2ccccc2)cc1Cl", "Group": "no (0)"}
{"Compound": "COc1ccc2cc(S(N)(=O)=O)c(=O)oc2c1", "Group": "yes (1)"}
{"Compound": "NC(N)=Nc1nc(CSCCC(N)=NS(N)(=O)=O)cs1", "Group": "no (0)"}
{"Compound": "NS(=O)(=O)c1ccc(NC(=O)Nc2cc(F)c(F)cc2F)cc1", "Group": "yes (1)"}
{"Compound": "Cc1ccc(S(=O)(=O)NC(=O)NNC(=O)c2cc(S(N)(=O)=O)c(Cl)cc2Cl)cc1", "Group": "yes (1)"}
{"Compound": "CC(=O)c1c(O)c2ccccc2oc1=O", "Group": "yes (1)"}
